# System: HT29 colon
# Procedure Text: NCI tumour cell line growth inhibition, 48 h
Metric: TGI

Consider the following illustrative entries.
molecule=COc1cc(OC)c(/C=C/c2cnc3ccccc3n2)c(OC)c1 metric=TGI reported_measurement="> 10 µM"
molecule="CC(=Nc1ccccc1)C1=C(O)C(Cc2ccccc2)NC1=O (centres undefined)" metric=TGI reported_measurement="0.151 µM"

In: Give measured TGI for O=CC[C@H]1CCc2ccccc2C12CCC(=O)CC2 (HT29 colon).
Out: > 100 µM

In: Give measured TGI for COc1ccc2c(c1)C(=O)c1c-2c(Nc2ccc(Cl)cc2)nc2ccccc12 (HT29 colon).
Out: > 100 µM

----------
# System: OVCAR-5 ovarian
# Procedure Text: NCI tumour cell line growth inhibition, 48 h
In this section, each of the molecules is paired with its reported TGI.

Consider the following illustrative entries.
molecule="Fc1ccc2nc3n(c2c1)C(c1c(Cl)cccc1Cl)SC3 (stereo unspecified)" reported_measurement="> 100 µM"
molecule=C1CCN(c2nc(=[N+]3CCCCC3)ss2)CC1 reported_measurement="> 100 µM"
molecule="COc1cc(OC)c(C2CC=Cc3c(OC)cc(OC)c(OC)c32)cc1OC (stereo unspecified)" reported_measurement="> 100 µM"

In: Note down TGI recorded for CC(=O)O[C@]1(C(C)=O)CC[C@H]2[C@@H]3C=C(C)C4=CC(=O)CC[C@]4(C)[C@H]3CC[C@@]21C
Out: > 100 µM

In: Note down TGI recorded for CC1OC(OC2C(O[C@H]3CC[C@@]4(C)C(=CC[C@H]5[C@@H]6C[C@@H]7O[C@]8(CC[C@H](C)CN8)[C@@H](C)[C@@H]7[C@@]6(C)CC[C@@H]54)C3)OC(CO)C(O)C2OC2OC(CO)C(O)C(O)C2O)C(O)C(O)C1O (stereo partly specified)
Out: 28.7 µM

In: Note down TGI recorded for COc1ccc(Nc2c3ccccc3nc3ccccc23)cc1
Out: 23 µM

----------
# Test system: A549 NSCLC
# Procedure Text: NCI tumour cell line growth inhibition, 48 h; in the data active means GI50 below about 0.43 µM; inactive means the rest
Please answer using one outcome listed in 1 for active, -1 for inactive

Sample answers from the record:
compound="N#CSCC1CC(O)(c2ccccc2)CC(c2ccc(F)cc2)O1 (stereo unspecified)" qualitative_label=-1
compound="CCN(C(=O)c1cc(F)ccc1Oc1cncnc1N1CC2(CCN(CC3CCC(NS(=O)(=O)CC)CC3)CC2)C1)C(C)C (stereo unspecified)" qualitative_label=-1
compound=CN(CC(=O)N(Cc1ccc(C2CCCCC2)cc1)c1ccc(C(=O)O)c(O)c1)S(=O)(=O)c1c(F)c(F)c(F)c(F)c1F qualitative_label=-1
compound=COc1cc2c(cc1Nc1nc(Nc3ccsc3C(N)=O)c3cc[nH]c3n1)N(C(=O)CN(C)C)CCC2(C)C qualitative_label=-1

In: Dear colleague, could you share the recorded outcome for NC(=O)c1cc(-c2ccc(F)cc2)cc(-c2ccncc2)c1N when you have a moment?
Out: -1

In: Dear colleague, could you share the recorded outcome for CC[C@@H](C(=O)[C@@H](C)[C@@H](O)[C@H](C)[C@@H]1O[C@@H]([C@@H](CC)C(=O)N(CC)CC)CC[C@@H]1C)C1O[C@]2(C=CC(=O)[C@]3(CC[C@@](C)([C@H]4CC[C@](O)(CC)[C@H](C)O4)O3)O2)[C@H](C)C[C@@H]1C (stereo partly specified) when you have a moment?
Out: -1

In: Dear colleague, could you share the recorded outcome for COc1cc(/C=C/C(=O)c2c(C)nc3ccccc3c2C)ccc1OCCCOc1cc2c(cc1OC)C(=O)N1CCC[C@H]1C=N2 when you have a moment?
Out: 1

In: Dear colleague, could you share the recorded outcome for Cc1c(COc2cc(OCc3cccc(C#N)c3)c(CN3C[C@H](O)C[C@@H]3C(=O)O)cc2Cl)cccc1-c1ccc2c(c1)OCCO2 when you have a moment?
Out: -1

In: Dear colleague, could you share the recorded outcome for CC(C)CCN=C(N)c1ccc(N2CCN(c3ccc(C(N)=NCCC(C)C)cc3)CC2)cc1 when you have a moment?
Out: -1

In: Dear colleague, could you share the recorded outcome for Nc1nc(-c2ccccc2)nc(N)c1N=O when you have a moment?
Out: -1

In: Dear colleague, could you share the recorded outcome for CC1(C)[C@@H](O[C@@H]2OC[C@@H](O[C@@H]3O[C@H](CO)[C@@H](O)[C@H](O)[C@H]3O[C@@H]3OC[C@@H](O)[C@H](O)[C@H]3O)[C@H](O)[C@H]2O[C@@H]2O[C@H](CO)[C@@H](O)[C@H](O)[C@H]2O)CC[C@]2(C)[C@H]3CC[C@]45OC[C@@]6(CC[C@](C)(C=O)C[C@H]64)[C@H](O)C[C@@]5(C)[C@]3(C)CC[C@@H]12 when you have a moment?
Out: -1
